Taken from PubChem BioAssay.

- TESTED_TARGET: Voltage-gated potassium channel subunit beta-2 (Rattus norvegicus) (UniProt P62483)
- Sequence (P62483 whole entry, looked up): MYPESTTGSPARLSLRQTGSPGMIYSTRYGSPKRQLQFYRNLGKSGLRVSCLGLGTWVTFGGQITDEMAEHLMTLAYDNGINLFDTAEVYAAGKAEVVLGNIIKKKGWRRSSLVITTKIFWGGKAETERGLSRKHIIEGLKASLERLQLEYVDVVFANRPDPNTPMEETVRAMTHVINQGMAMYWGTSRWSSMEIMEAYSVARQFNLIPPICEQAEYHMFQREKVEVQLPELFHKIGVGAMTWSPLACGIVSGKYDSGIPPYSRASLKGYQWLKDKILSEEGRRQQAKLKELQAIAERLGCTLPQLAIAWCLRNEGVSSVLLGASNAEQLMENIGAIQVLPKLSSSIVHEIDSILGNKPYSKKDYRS
- MEASUREMENT_NOTES: KvBeta enzyme negative modulators, primary screen, biochemical, NADPH fluorescence (AID 622);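 further: slope of raw intensity against log time taken from 70 to 1610 s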
- MEASUREMENT_PARAMETERS: recombinant KvBeta, 4-cyanobenzaldehyde reduction, at 10 µM, stronger effect = higher value
REPORTED_METRIC: fluorescence slope
Please give only the number in your answer, with no unit.

CC(=O)Nc1cc2c(nc1C)nc(C)n2Cc1ccc(Br)cc1 :: -0.526

Problem: What reported fluorescence slope corresponds to COc1cccc(C2=CC(c3ccc(N(C)C)cc3)n3nnnc3N2)c1 (stereo not given) on Voltage-gated potassium channel subunit beta-2 (Rattus norvegicus) (UniProt P62483)?
Solution: -0.33

Problem: What reported fluorescence slope corresponds to CCc1ccc(NC(=O)CS(=O)CC(=O)NCC2OCCc3ccccc32)cc1 (stereo not given) on Voltage-gated potassium channel subunit beta-2 (Rattus norvegicus) (UniProt P62483)?
Solution: -0.415

Problem: What reported fluorescence slope corresponds to CCOc1cccc(NC(=O)C2CC(=O)NC(=Nc3ccccc3)S2)c1 (stereo not given) on Voltage-gated potassium channel subunit beta-2 (Rattus norvegicus) (UniProt P62483)?
Solution: -0.456

Problem: What reported fluorescence slope corresponds to Cc1cc2c(c(=O)n1Cc1ccccn1)C(c1ccc3c(c1)OCO3)C(C#N)=C(N)O2 (stereo not given) on Voltage-gated potassium channel subunit beta-2 (Rattus norvegicus) (UniProt P62483)?
Solution: -0.451
